Can you tell me TGI for the items I'm about to list?
- Tested on: ACHN renal
- testProtocol: NCI tumour cell line growth inhibition, 48 h

compound: O=C(c1cccc(F)c1F)N1CCc2c([nH]c3ccccc23)C1c1ccc2c(c1)OCO2 (stereo not given)
TGI: > 100 µM

Kindly give each listed record's TGI.
1. C=CC(C)c1cccc(C=O)c1O (stereo not given)
2. Nc1nc(N)c2ncn(-c3ccc(Br)cc3)c2n1
3. O=C(O)C1CCC(=O)N1C(=O)C(Cl)c1ccccc1 (stereo not given)
4. Cc1ccc2cc3c(cc(C)c4ccccc43)c3c2c1CC3

Completion:
["> 100 µM", "> 52.8 µM", "> 100 µM", "> 100 µM"]

----------
- Tested on: NCI-H460 lung
- testProtocol: NCI tumour cell line growth inhibition, 48 h
Can you tell me TGI for the items I'm about to list?

molecule: CCOP(=O)(CN1CCNCCN(CP(=O)(OCC)OCC)CC1)OCC
TGI: > 100 µM

molecule: COC(=O)C(=O)C(C(=O)C(=O)Nc1ccc([N+](=O)[O-])cc1[N+](=O)[O-])c1nc2ccc(Cl)cc2[nH]c1=O (stereo not drawn)
TGI: > 100 µM

We next turn to a different molecule, shown below.
Prompt: Name the reported TGI value associated with the molecule CCOC(=O)CCC(NC(=O)c1ccc(Sc2nc3cc(N)cc(N)c3nc2-c2ccccc2)cc1)C(=O)OCC (stereo not drawn)
Completion: > 100 µM

----------
- Tested on: OVCAR-3 ovarian
- testProtocol: NCI tumour cell line growth inhibition, 48 h
Can you tell me TGI for the items I'm about to list?

molecule: COc1cc(/C=C2\CCC/C(=C\c3ccc(OC(=O)CCCCC4CCSS4)c(OC)c3)C2=O)ccc1OC(=O)CCCCC1CCSS1 (stereo not drawn)
TGI: > 100 µM

molecule: C(CCCCc1nnc(N2CCOCC2)o1)CCCc1nnc(N2CCOCC2)o1
TGI: > 100 µM

We next turn to a different molecule, shown below.
Prompt: Name the reported TGI value associated with the molecule N#CCCC1(CCC#N)CCCCCCC(CCC#N)(CCC#N)C(=O)C1=O
Completion: > 100 µM

----------
- Test system: SK-MEL-2 melanoma
- testProtocol: NCI tumour cell line growth inhibition, 48 h
measuredAttribute: TGI

molecule: CN(C)CCCNC(=O)c1cccc2ccccc12
TGI: > 100 µM
//
molecule: O=C(Cc1ccccc1CCO)NCCc1ccccc1
TGI: > 100 µM
//
molecule: CC12CCCCC1C(=O)C2(Cl)Cl (configuration not stated)
TGI: 4.41 µM

Kindly give each listed record's TGI.
1. O=C(O)CNCP(=O)(O)O
2. CC(=O)OCCn1c(Cc2ccc(C)cc2)nn(C(C)=O)c1=O
3. COc1ccc2c(c1)[n+](=O)c(C(=O)C/C(=N/NC(=O)c1ccccc1O)C(=O)Nc1ccc(Cl)c(C(F)(F)F)c1)c(C)n2[O-]
4. CCN(CC)CCNC(=O)c1cc2cc(NC(=O)c3cc4cc(N)ccc4[nH]3)ccc2[nH]1

Completion:
["> 100 µM", "> 100 µM", "> 100 µM", "> 100 µM"]

Kindly give each listed record's TGI.
1. COC1CC(Br)(C#N)C1 (configuration not stated)
2. CN(C)CCCN1N=Nc2cccc3cccc1c23
3. C#CCCCCC#Cc1ccccc1C(=O)C=[N+]=[N-]
4. CCN(CC)CC1CCCCN1CC(=O)N1c2ccccc2NC(=O)c2ccccc21 (configuration not stated)
5. S=c1ssnc1-c1ccccn1
6. COc1cc(-c2nn(-c3ccc(NC(=O)NCCNS(=O)(=O)c4ccc(F)cc4)cc3)cc2-c2ccncc2)ccc1Cl
7. CC(=O)/C(=C/n1ccc(=O)[nH]c1=S)C(=O)Nc1ccccc1C
8. O=C(NC1CCCCC1)OCc1c(COC(=O)NC2CCCCC2)c(-c2ccc(Cl)c(Cl)c2)n2c1CCC2

Completion:
["> 100 µM", "> 100 µM", "> 100 µM", "> 100 µM", "5.73 µM", "2.62 µM", "> 100 µM", "12.7 µM"]

Kindly give each listed record's TGI.
1. Cc1ccc(S(=O)(=O)N(/N=C/C=C/c2ccccc2)c2nnc(-c3ccccc3)c(-c3ccccc3)n2)cc1
2. CC(C)C[C@@H](NC(=O)[C@@H](Cc1cccc2ccccc12)NC(=O)N1CCOCC1)B(O)O
3. COc1cc2nc3c(=C(C#N)C#N)c4ccccc4n3c(=O)c2cc1OC
4. Oc1ccc[n+](Cc2ccccc2)c1
5. Cc1ccc(C(=O)CC(O)(C(F)(F)F)C(F)(F)F)cc1[N+](=O)[O-]
6. Oc1ccc(C=NCC2CCCN3CCCCC23)cc1 (configuration not stated)
7. COP(=O)(OC)/C(=C/c1cn(C(C)=O)c2ccccc12)NC(C)=O
8. C/C(=N\[N+](C)(C)C)c1ccc(C)c(C)c1

Completion:
["47.8 µM", "> 100 µM", "> 100 µM", "> 100 µM", "34 µM", "49.4 µM", "> 100 µM", "> 100 µM"]

Kindly give each listed record's TGI.
1. O=C(NC1C(O)C(O)C(CO)OC1n1cc(F)c(=O)[nH]c1=O)OCc1ccccc1 (configuration not stated)
2. COc1cc2c(cc1O)CC[C@@H]1[C@@H]2CC[C@]2(C)[C@@H](OCCCN(C)C)CC[C@@H]12
3. CCOC(=O)C(Br)(C(N)=O)C1(O)OC(c2ccccc2)=C(Br)C1=O (configuration not stated)
4. O=C(Nc1sccc1S(=O)(=O)c1ccc(Cl)cc1)c1ccc(Cl)cc1

Completion:
1: > 100 µM; 2: 0.198 µM; 3: > 100 µM; 4: > 100 µM
